- MEASURED TARGET: Lysosomal acid glucosylceramidase (Homo sapiens)
- Sequence (P04062 whole entry): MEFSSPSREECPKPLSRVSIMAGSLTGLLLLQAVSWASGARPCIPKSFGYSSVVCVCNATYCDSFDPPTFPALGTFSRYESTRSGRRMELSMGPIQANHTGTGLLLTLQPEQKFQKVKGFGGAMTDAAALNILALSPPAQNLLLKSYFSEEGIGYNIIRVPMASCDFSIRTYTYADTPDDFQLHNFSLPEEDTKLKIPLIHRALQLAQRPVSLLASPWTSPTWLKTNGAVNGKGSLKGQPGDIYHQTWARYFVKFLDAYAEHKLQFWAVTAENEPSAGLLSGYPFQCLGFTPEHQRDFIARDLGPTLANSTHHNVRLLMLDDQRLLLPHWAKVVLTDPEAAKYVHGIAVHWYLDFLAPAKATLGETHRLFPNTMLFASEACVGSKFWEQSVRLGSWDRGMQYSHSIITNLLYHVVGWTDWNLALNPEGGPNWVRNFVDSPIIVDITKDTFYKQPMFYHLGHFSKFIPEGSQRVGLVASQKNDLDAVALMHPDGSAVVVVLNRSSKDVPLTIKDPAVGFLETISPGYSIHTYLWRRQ
- ASSAY NAME: Inhibition of human beta-glucocerebrosidase at pH 5.0 by spectrophotometry
- CONDITION SUMMARY: read-out: IC50

SUBSTANCE SMILES: O=C(O)CCCCCCCCCCCCCCCSC1=N[C@H]2O[C@H](CO)[C@@H](O)[C@H](O)[C@H]2O1
IC50: > 1000 µM
//
SUBSTANCE SMILES: OC[C@H]1O[C@@H]2N=C(SCCCCCCCCCCCCCCCCI)O[C@@H]2[C@@H](O)[C@@H]1O
IC50: > 1000 µM
//
SUBSTANCE SMILES: COC(=O)CCCCCCCCCCCCCCCSC1=N[C@H]2O[C@H](CO)[C@@H](O)[C@H](O)[C@H]2O1
IC50: 300 µM
//
SUBSTANCE SMILES: OC[C@H]1O[C@@H]2N=C(SCCCCCCCCCCCCCCCCF)O[C@@H]2[C@@H](O)[C@@H]1O
IC50: 27 µM

Values from ChEMBL document CHEMBL3393046
